# Test system: MDA-MB-231 breast
# assay protocol: NCI tumour cell line growth inhibition, 48 h
Parameter: log10 TGI. Scope: all listed entries.
Log10 applied to TGI; unit prior to transform: µM.

Use the examples below as a reference point.
cpd smiles	log10 TGI
O=C1NC(=S)S/C1=C(/C=C(\CC(=O)c1ccccc1)c1ccc(Cl)cc1)c1ccccc1	1.86
COc1cc(S(=O)(=O)Nc2ccc(C(=O)/C=C/c3ccc(O)cc3)cc2)ccc1F	0.96
O=C1C=CC(=O)c2c(O)c(N3CCC[C@H]3CO)c(Cl)c(O)c21	0.81
CCn1c2ccc(C(=O)CCCN3CCCCC3)cc2c2cc(C(=O)CCCN3CCCCC3)ccc21	0.68

Here's the next entry for you.
Req: So what does the record say about log10 TGI for CC[C@H](Nc1nc(C)nc(N)c1C#N)c1nc2cccc(NCc3ccc(C(=O)NO)cc3)c2c(=O)n1-c1ccccc1 ?
Resp: 0.53
